- Measured On: SARS-CoV-2 (WT) Spike RBD Protein (His Tag) (SARS-CoV-2 ancestral (Wuhan-Hu-1), UniProt P0DTC2)
Endpoint: binding result

Binder	Result
BD55-5248 (antibody, V domains shown) VH: QVQLVESGGGVVQPGRSLRLSCAASGFTFSSYDMYWVRQAPGKGLEWVAVISYDGSSNFYADSVKGRFTISRDNSRNTLSLQMNSLRAEDTAVYFCARERREQLTPVFDHWGQGTLVTVSS VL: DIQMTQSPSSLSASVGDRVTITCRASQSISSYLNWYQQRPGKAPKLLIYSASTLESGVPSRFSGSGSGTDFTLTINSLQPEDFATYYCQQSYSTLALTFGGGTKVEIK	binds
BD55-4664 (antibody, V domains shown) VH: QVQLQQWGAGLLRPSETLSLTCAVSGGSFSGYYWSWIRQPPGKGLEWIGEINHTGGTNYNPSLKSRVTVSIDMSRNQFSVKLNSLTAADTAVYFCAREAPDYFDSSGYRFDYWGQGALVTISS VL: QSALTQPASVSGSPGQSITISCTGTSNDVGGYNYVSWYQQHPGKAPKLIIYDVTSRPSGISNRFSGSKSGNTASLTISGLQAEDEADYYCCSYTRSFTRVFGGGTKLTVL	binds
BD55-4495 (antibody, V domains shown) VH: QGHLVQSGAEVKEPGASVTLSCKASGYTFTNHFMHWVRQAPGQGLEWMARINPSGDSTNLAQKFQGRVSVTRDSSTSTVYMYLSRLRVEDTAVYYCARDRFPSPGNFVWGSPLGGMDVWGQGTTVTVSS VL: SYDLAQPPSVSVSPGQTATITCSGAALPNQYAYWYQQKSGQAPVLLLYKDSERPSGIPERFSGSNSGTTVTLTISGVQAEDEAVYYCQSADSSTSYHVFGAGTKVTVL	binds

Cited source for all entries: paper PMC9712074
